Assign TGI to each entry below.
test system: HOP-62 NSCLC; assay: NCI tumour cell line growth inhibition, 48 h

Solved cases (3 shown):
Cc1cc(=O)oc2c(CNC(C)C(=O)O)c(O)ccc12 (centres undefined) :: > 100 µM
O=C(N/N=C/c1coc2ccc(Cl)cc2c1=O)c1ccncc1 :: > 100 µM
O=C1C=C(c2c(-c3ccccc3)[nH]c3ccccc23)C(=O)N1c1ccccc1 :: 1.06 µM

Now take the following compound into account.
### Prompt So what does the record say about TGI for COc1ccc(OC)c(C2CCCc3c2cnc2nc(N)nc(N)c32)c1 (centres undefined) ?
### Response > 100 µM

---

system: HCT-116 colon; experiment: NCI tumour cell line growth inhibition, 48 h; in the data active = GI50 below about 0.43 µM; inactive = the rest
Outcomes you can answer with include only these: True for active, False for inactive

### Prompt Give the logged outcome of this assay for the following compound: `COc1cc(C(=O)NC2CCN(C)CC2)ccc1Nc1ncc2c(n1)N(C1CCCC1)CC(F)(F)C(=O)N2C`
### Response True

### Prompt Would you mind doing `COc1ccc(-c2cn(-c3ccc(Cl)cc3)c(=S)[nH]2)cc1OC` as well?
### Response False

### Prompt Would you mind doing `COc1ccc2nc3cccc([N+](=O)[O-])c3c(NCCN(CCO)CCO)c2c1` as well?
### Response True

### Prompt Would you mind doing `CN(C)CCCNC(=O)c1cc(NC(=O)CCNC(=O)c2ccc3c(c2)C(=O)c2ccccc2C3=O)cn1C` as well?
### Response False

---

system: HCC-2998 colon; assay: NCI tumour cell line growth inhibition, 48 h
Assign GI50 to each entry below.

Solved cases (2 shown):
C=C1C(=O)O[C@H]2[C@H]1CC/C(COC(=O)/C=C\C(=O)NCc1ccc(Cn3c(=O)sn(-c4ccc(OC)cc4)c3=O)cc1)=C\CC[C@@]1(C)O[C@@H]21 :: 0.881 µM
O=C(O)c1cc(N/C=C2\C(=O)c3ccccc3OC2O)ccc1O (stereo not drawn) :: 27.4 µg/mL

### Prompt So what does the record say about GI50 for C=CCCC(O)c1ccc(C(O)CCCCCCCCCCCC)o1 (stereo not drawn) ?
### Response 21.4 µM

---

system: SK-MEL-2 melanoma; test: NCI tumour cell line growth inhibition, 48 h
Value kind: TGI

Cn1c(=O)oc2cc(C(=S)N3CCC(Cc4ccccc4)CC3)ccc21 :: > 100 µM
COc1ccccc1CNCCCN1C(=O)c2ccc3c4c(ccc(c24)C1=O)C(=O)N(CCCNCCCCNCCCCN)C3=O :: 4.87 µM
CN(C)CCCNC(=O)c1cc(NC(=O)CCNC(=O)c2ccc3c(c2)C(=O)c2ccccc2C3=O)cn1C :: > 100 µM
Oc1ccc2ccccc2c1-c1c(Nc2ccccc2)ccc2ccccc12 :: 36.3 µM
Cc1ccc(-c2c(C#N)c(-c3ccc([N+](=O)[O-])cc3)c(C#N)c(=O)n2NS(=O)(=O)c2ccc(C)cc2)cc1 :: > 100 µM

Now take the following compound into account.
### Prompt So what does the record say about TGI for `COc1ccc(NC(=O)CC/C(CC(=O)c2ccccc2Cl)=N\Nc2nnc(C)n2N)cc1` ?
### Response > 100 µM

---

tested on: LXFL 529 NSCLC; assay: NCI tumour cell line growth inhibition, 48 h
Assign TGI to each entry below.

COc1nc(/C=N/NC(N)=S)nc(OC)n1 :: > 100 µM
C[C@]12CCC3[C@@H](C[C@H]4OC(=O)[C@@]35CCC(=O)C=C45)C1CCC2=O (some centres not stated) :: > 100 µM
Cc1ccc(C2(C)NC(=S)N(NC(N)=S)C2=S)cc1 (configuration not stated) :: > 100 µM
CN(C)c1ccc(/C=C/C(=O)c2ccccc2)cc1Br :: 28.8 µM
COc1ccc(CN2C(=O)C(Cc3cc(OC)c(OC)c(C)c3OC)N(C(=O)OC(C)C)C(=O)/C2=C/c2cc(OC)c(OC)c(C)c2OC)cc1 (configuration not stated) :: > 100 µM

Below is a list of compounds. For each, state its recorded TGI.
1. O=c1oc2c3ccc4ccccc4c3n(CCN3CCOCC3)c2c2ccccc12
2. COc1cc(C2c3cc4c(cc3[C@H](NC(=O)c3cccs3)C3COC(=O)[C@H]23)OCO4)cc(OC)c1OC (some centres not stated)
3. Nc1nc(=O)n(C2CC(O)C(O)C(CO)O2)cc1F (configuration not stated)
4. CNc1nnnn1C1OC(CO)C(O)C1O (configuration not stated)

### Response
> 100 µM
47.2 µM
> 100 µM
> 100 µM

Below is a list of compounds. For each, state its recorded TGI.
1. CC1=C2C(=O)C3[C@@H](CCC4=CC(=O)CC[C@@]43C)C2CC[C@]12O[C@@H]1C[C@H](C)CN[C@H]1[C@H]2C (some centres not stated)
2. CN(C)CCSC(=Nc1ccccc1)N1C=COC=C1
3. Cc1cc2c(cc1C)N1Cc3c(ccc(C)c3C)N(C2)C1 (tested in a mixture with another compound)
4. Cc1c(/C=N/NC(=O)c2ccccc2)c(=O)n(-c2ccccc2)n1C
5. COC(=O)NNc1c([N+](=O)[O-])cnn(-c2ccccc2)c1=O

### Response
1: > 100 µM; 2: 30.6 µM; 3: > 100 µM; 4: > 100 µM; 5: 3.16 µM

Below is a list of compounds. For each, state its recorded TGI.
1. C[N+](C)(C)CCC(=O)N1C/C(=C\c2ccccc2)C(=O)/C(=C/c2ccccc2)C1
2. COc1cc(C2C(Cl)C(=O)N2NC(=O)c2ccc(NC(C)=O)cc2)cc(Br)c1O (configuration not stated)
3. O=c1c2cc(Br)ccc2[nH]c(=S)n1-c1ccc(Br)cc1

### Response
13.5 µM
> 100 µM
> 100 µM

---

system: SNB-75 CNS; test: NCI tumour cell line growth inhibition, 48 h
Assign TGI to each entry below.

Solved cases (2 shown):
CC(C)(C)[Si](C)(C)OCC1OC(n2cc(F)c(=O)[nH]c2=O)CC1O[Si](C)(C)C(C)(C)C (stereo unspecified) :: 15.9 µM
NC(=O)Cc1ncn(-c2ccccc2)n1 :: > 100 µM

Below is a list of compounds. For each, state its recorded TGI.
1. CC1(C)N(OC2CCCCO2)C(c2ccccc2)C(c2ccccc2)=[N+]1[O-] (stereo unspecified)
2. Cc1cc(C)nc(NS(=O)(=O)c2ccc(NC(=O)c3cccc4c(Nc5ccc(S(=O)(=O)Nc6nc(C)cc(C)n6)cc5)c5ccccc5nc34)cc2)n1
3. Cc1ccc(-c2c(C#N)c(-c3ccc([N+](=O)[O-])cc3)c(C#N)c(=O)n2NS(=O)(=O)c2ccc(C)cc2)cc1
4. COc1ccc(C(=O)C(c2ccc(OC)cc2)C2C(=O)Oc3ccccc32)cc1 (stereo unspecified)
5. CN(C)CCSC(=Nc1ccccc1)N1C=COC=C1

### Response
> 100 µM
35.5 µM
> 100 µM
> 100 µM
> 100 µM

---

tested on: SK-MEL-5 melanoma; test: NCI tumour cell line growth inhibition, 48 h
Assign GI50 to each entry below.

Solved cases (2 shown):
O=C(N/N=C/c1coc2ccc(Cl)cc2c1=O)c1ccncc1 :: 44.8 µM
O=C(O)c1cc(N/C=C2\C(=O)c3ccccc3OC2O)ccc1O (stereo not drawn) :: 18 µg/mL

Now take the following molecule into account.
### Prompt So what does the record say about GI50 for `COc1cc(-c2cc(/C=C/C(=O)c3ccc4c(c3)OCO4)[nH]n2)cc(OC)c1OC` ?
### Response 4.51 µM

---

system: 786-0 renal; assay: NCI tumour cell line growth inhibition, 48 h
// label = satisfied if TGI is not less than 30 µM, otherwise not satisfied

// known answers, use as guide
Cc1ccccc1N=Cc1ccc(N(CCC#N)S(=O)(=O)c2ccccc2)cc1 :: satisfied
Nc1ncnc2c1c(-c1cccc(OCc3ccccc3)c1)cn2C1CC(CN2CCCC2)C1 (stereo not given) :: not satisfied
NCCCCC(N)C(=O)N1CCN(c2nc(N3CCCC3)c3nc(Cl)c(NCc4ccccc4)nc3n2)CC1 (stereo not given) :: satisfied
OCCOCCN1CCN(c2nc(N3CCCC3)c3nc(Cl)c(NCc4ccccc4)nc3n2)CC1 :: not satisfied

### Prompt Tell me whether TGI is at least 30 µM here: C[C@H](CCC(=O)O[C@@H]1CC[C@@]2(C)C(CC[C@H]3[C@@H]4CC[C@H]([C@H](C)CCc5nc6ccccc6[nH]5)[C@@]4(C)CC[C@@H]32)C1)[C@H]1CC[C@H]2[C@@H]3CCC4C[C@H](O)CC[C@]4(C)[C@H]3CC[C@]12C (stereo not given in full)
### Response satisfied

### Prompt Would you mind doing `COC(=O)NNc1c([N+](=O)[O-])cnn(-c2ccccc2)c1=O` as well?
### Response not satisfied

### Prompt Would you mind doing `C=CC1(c2ccc3ccccc3c2)OCC(CC)(CC)CO1` as well?
### Response satisfied

### Prompt Would you mind doing `COc1ccc(/C=C/C(=O)c2nc3ccccc3[nH]2)cc1` as well?
### Response satisfied

### Prompt Would you mind doing `COCC[N+](CCNC(=O)c1cccc2c(N)c3cccc(C)c3nc12)(CCOC)Cc1ccc([N+](=O)[O-])cc1` as well?
### Response satisfied

### Prompt Would you mind doing CCOC(=O)C1(Cc2ccccc2)Cc2cc3c(cc2C1=O)CCC3 (stereo not given) as well?
### Response satisfied
